Test system: HCT-116 colon
TEST_SUMMARY: NCI-60 one-dose screen, 48 h (100 = growth as untreated, 0 = no growth, -100 = all killed)
ASSAY_CONDITIONS: 10 µM
About 83,000 compounds went through this panel and 20% of them were active in at least one assay; those are over-represented in the sample as a whole.
PROPERTY_LABEL: growth (%)
Value expressed in %; do not type the unit.

- MOLECULE: "C[N+](C)(C)c1ncnc2nc[nH]c12"
  MEASURED_RESULT: 97.3
- MOLECULE: "COc1ccc2c(c1)O/C(=C\\c1ccc([N+](=O)[O-])s1)C2=O"
  MEASURED_RESULT: -23.4
- MOLECULE: "O=C1N=NC2=C1c1c3ccccc3c(O)n1CC2"
  MEASURED_RESULT: 93.9

Give the measured growth of CCOC(=O)N1C/C(=C/c2ccc(F)cc2)C(=O)/C(=C/c2ccc(F)cc2)C1 . -83.9

So what's the measured growth for this one? N#Cc1ncc(-c2ccc(C(F)(F)F)cc2)c(NCc2cc(C(F)(F)F)cc(C(F)(F)F)c2)n1 7.85

I would be grateful if you could share the reported growth for O=C(Nc1cccc(-n2cc(-c3ccncc3)c(-c3cc(O)cc(Cl)c3)n2)c1)c1ccc(N2CCOCC2)c(C(F)(F)F)c1 . 12.7

If you can, please state the reported growth value of C#Cc1ccc(-n2c(/C=C/c3ccc4ccccc4c3)nc3ncccc3c2=O)cc1 . 21

---

Tested on: A549/ATCC NSCLC
TEST_SUMMARY: NCI-60 one-dose screen, 48 h (100 = growth as untreated, 0 = no growth, -100 = all killed)
ASSAY_CONDITIONS: 10 µM
The panel holds about 83,000 compounds, 20% with a hit somewhere; the sample as a whole holds those more often.
PROPERTY_LABEL: growth (%)
# output: bare number, implied unit %

- MOLECULE: "O=C1OCC2=C1C(c1ccc(Cl)c(Cl)c1)c1cc3c(cc1N2CCO)OCCO3 (stereo not given)"
  growth (%): 22.6
- MOLECULE: "COc1ccc(N=C2C(=Nc3ccc(OC)cc3)N(c3ccc(N(C)C)cc3)C(=S)N2c2ccc(OC)cc2)cc1"
  growth (%): 90.4
- MOLECULE: "O=[N+]([O-])c1ccc(N/N=C/c2cccc3ccccc23)nc1"
  growth (%): 92.4
- MOLECULE: "COc1cccc(-c2cc(-c3cccc(NS(C)(=O)=O)c3)nc(N)c2C#N)c1O"
  growth (%): 31

Below: the item to evaluate.
Request the reported growth associated with CC(C)=NNc1ncnc2c1ncn2C1OC(CO)C(O)C1O (stereo not given) 14.3

---

Test system: NCI-H226 lung
TEST_SUMMARY: NCI-60 one-dose screen, 48 h
ASSAY_CONDITIONS: 10 µM
This is part of a sample that, as a whole, favours compounds with a hit. Of some 83,000 tested, about 20% had one in any assay. The source made the active and inactive calls. How the source made its calls: active means growth percent below 10; inactive means the rest.
Returns: one label drawn from active, inactive

- COMPOUND: "COc1cc(-c2cc(/C=C/C(=O)c3ccc(F)c(F)c3)[nH]n2)cc(OC)c1OC"
  CLASSIFICATION: "inactive"
- COMPOUND: "CCOC(=O)CCC(NC(=O)c1ccc(N)cc1)C(=O)OCC (stereo not given)"
  CLASSIFICATION: "inactive"
- COMPOUND: "Cc1cc(O)c(C(C)(C)C)cc1Sc1cc(C(C)(C)C)c(O)cc1C"
  CLASSIFICATION: "inactive"
- COMPOUND: "COc1ccc(-c2nn(-c3cccc(NC(=O)c4cccc(C(F)(F)F)c4)c3)cc2-c2ccncc2)cc1Cl"
  CLASSIFICATION: "inactive"

Hi team, can someone confirm the assay call for CCCCCCCCCCCC[n+]1ccc(C(N)=O)cc1 ? inactive

Look up the recorded call for O=C1/C(=C/c2ccc(Cl)cc2)SC(=Nc2ccc(Cl)cc2)N1Cc1nc2ccccc2[nH]1 in this test. inactive

Each compound tested received a call. Report the one for Cc1nc2oc3ccccc3c(=O)c2cc1C(=O)NCc1ccccc1 . inactive
